Taken from patent US20200131274A1.

// reported His-ZAP cell killing, human PSMA Average EC50 per item
Assay system: human prostate specific membrane antigen (PSMA), full-length, on cells (human, UniProt Q04609 1-750)
Sequence (Q04609 whole entry): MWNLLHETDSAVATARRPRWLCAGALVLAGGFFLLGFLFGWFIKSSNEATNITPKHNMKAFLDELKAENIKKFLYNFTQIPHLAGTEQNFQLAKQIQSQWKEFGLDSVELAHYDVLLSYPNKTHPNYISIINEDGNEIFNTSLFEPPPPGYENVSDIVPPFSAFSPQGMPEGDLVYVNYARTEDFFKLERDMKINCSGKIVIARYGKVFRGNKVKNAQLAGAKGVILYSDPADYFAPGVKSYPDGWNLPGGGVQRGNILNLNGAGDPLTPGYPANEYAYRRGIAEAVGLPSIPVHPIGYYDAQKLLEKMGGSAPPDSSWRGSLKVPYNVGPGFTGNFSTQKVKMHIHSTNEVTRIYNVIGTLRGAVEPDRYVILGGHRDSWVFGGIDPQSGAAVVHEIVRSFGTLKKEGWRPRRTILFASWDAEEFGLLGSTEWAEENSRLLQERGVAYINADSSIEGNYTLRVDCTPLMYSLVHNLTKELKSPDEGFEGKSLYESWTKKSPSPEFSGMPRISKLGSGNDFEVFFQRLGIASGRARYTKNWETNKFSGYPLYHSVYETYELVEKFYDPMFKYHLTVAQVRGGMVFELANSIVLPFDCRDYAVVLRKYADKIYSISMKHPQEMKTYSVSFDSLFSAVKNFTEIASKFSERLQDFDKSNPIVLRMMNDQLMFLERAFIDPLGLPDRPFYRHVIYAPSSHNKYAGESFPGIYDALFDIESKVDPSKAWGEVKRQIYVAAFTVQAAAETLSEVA
Assay details: cell-based or functional assay
Your answer is read as nM, so omit the unit and give the number.

The examples below pair each entry with its known result.
Measured His-ZAP cell killing, human PSMA Average EC50 of 1.11-6GS-2.1 (bispecific antibody, linker (G4S)6; also called 1.11-2.1) EVQLLESGGGLVQPGGSLRLSCAASGFSFSSYALSWVRQAPGKGLEWVSSIGENNDTTDYADNVKGRFTISRDNSKNTLYLQMNSLRVEDTAVYYCVKDGVHWGQGTLVTVSSGGGGSGGGGSGGGGSGGGGSGGGGSGGGGSEVQLVESGGGVVQPGRSLRLSCAASGFSFSGYGMHWVRQAPGKGLEWVAYISYDGSNKYYADSVKGRFTISRDNSKNTLYLQMNSLRAEDTAVYYCAKDPAWGLRLGESSSYDFDIWGQGTMVTVSS : 0.017

# His-ZAP cell killing, human PSMA Average EC50 (binder: single VH domain antibody 2.12 (VHH, Human single VH domain antibody (Humabody); C-terminal His tag, residues not tied) VHH: EVQLVESGGGVVQPGRSLRLSCAASGFSFSGYGMHWVRQAPGKGLEWVAYISYDKSNKYYADKVKGRFTISRDNSKNTLYLQMNSLRAEDTAVYYCAKDPAWGLRLGESSSYDFDIWGQGTMVTVSS ) is 0.016

Sample single VH domain antibody 1.10 (VHH, Human single VH domain antibody (Humabody)) VHH: EVQLLESGGGLVQPGGSLRLSCAASGFSFSSYALSWVRQAPGKGLEWVSSIGENNATTDYADFVKGRFTISRDNSKNTLYLQMNSLRVEDTAVYYCVKDGVHWGQGTLVTVSS ; His-ZAP cell killing, human PSMA Average EC50 observed: 0.021

The recorded His-ZAP cell killing, human PSMA Average EC50 for entry 1.16-6GS-2.1 (bispecific antibody, linker (G4S)6) EVQLLESGGGLVQPGGSLRLSCAASGFSFSSYALSWVRQAPGKGLEWVSSIGENNHTTDYADTVKGRFTISRDNSKNTLYLQMNSLRVEDTAVYYCVKDGVHWGQGTLVTVSSGGGGSGGGGSGGGGSGGGGSGGGGSGGGGSEVQLVESGGGVVQPGRSLRLSCAASGFSFSGYGMHWVRQAPGKGLEWVAYISYDGSNKYYADSVKGRFTISRDNSKNTLYLQMNSLRAEDTAVYYCAKDPAWGLRLGESSSYDFDIWGQGTMVTVSS equals 0.014

The binder identified as single VH domain antibody 1.14 (VHH, Human single VH domain antibody (Humabody)) VHH: EVQLLESGGGLVQPGGSLRLSCAASGFSFSSYALSWVRQAPGKGLEWVSSIGENNATTDYADVVKGRFTISRDNSKNTLYLQMNSLRVEDTAVYYCVKDGVHWGQGTLVTVSS registered its His-ZAP cell killing, human PSMA Average EC50 at 0.017

More entries:
Consider single VH domain antibody 2.22 (VHH, Human single VH domain antibody (Humabody); C-terminal His tag, residues not tied) VHH: EVQLVESGGGVVQPGRSLRLSCAASGFSFSGYGTHWVRQAPGKGLEWVAYISYDGSNKYYAAPVKGRFTISRDNSKNTLYLQMNSLRAEDTAVYYCAKDAAWGLRLGESSSYDFDIWGQGTMVTVSS . Its measured His-ZAP cell killing, human PSMA Average EC50 is 0.069
